Assayed Target: Neu5Ac(a2-3)GalNAc(b1-4)GlcNAc
Experiment Notes: glycan array binding signal (z-score within array); higher = stronger binding
Test Context: glycan notation: IUPAC condensed, linker removed
The sample as a whole holds a higher share of the strongest signals than the screen did.
Measurement Kind: glycan array binding signal (z-score)
One number for each entry.

Form: binder = LSECtin (Homo sapiens), Q6UXB4 (protein) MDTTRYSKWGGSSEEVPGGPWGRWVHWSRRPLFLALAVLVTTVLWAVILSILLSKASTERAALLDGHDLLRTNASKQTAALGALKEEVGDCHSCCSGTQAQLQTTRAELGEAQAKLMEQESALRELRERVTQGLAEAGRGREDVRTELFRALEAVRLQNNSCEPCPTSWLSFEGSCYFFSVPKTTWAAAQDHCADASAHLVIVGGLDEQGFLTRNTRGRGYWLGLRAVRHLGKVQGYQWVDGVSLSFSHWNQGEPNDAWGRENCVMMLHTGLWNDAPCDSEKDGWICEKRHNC ; glycan array binding signal (z-score) = -0.22
